Catalogue of compounds with associated half-life
- assay_remarks: Half life period was evaluated in Sprague-Dawley rats at a dose of 15 mg/kg after po administration
- Format: ADME, organism-based
- Design: dose 15 mg/kg, route oral
- particulars: rat, in vivo

[
  {
    "compound": "CS(=O)(=O)c1ccc(-c2cc(Br)sc2-c2ccc(F)cc2)cc1 [DUP-697]",
    "half-life, h": 16.6
  },
  {
    "compound": "CS(=O)(=O)c1ccc(-c2ccsc2-c2ccc(F)cc2)cc1",
    "half-life, h": 12.1
  }
]

====

- assay_remarks: Area under curve was evaluated against man at a dose of 10 mg/kg after po administration
- Type: ADME, organism-based
- Design: dose 10 mg/kg, route oral
- particulars: human, in vivo
test_readout: AUC (µg·h/mL)

[
  {
    "smiles_data": "CS(=O)(=O)c1ccc(-c2cc(Br)sc2-c2ccc(F)cc2)cc1",
    "test_readout": "AUC",
    "measured_value": 3240
  }
]

====

- assay_remarks: Volume of distribution was evaluated in Sprague-Dawley rats at a dose of 15 mg/kg after iv administration
- Assay type: ADME, organism-based
- Set-up: dose 15 mg/kg, route intravenous
- particulars: rat, in vivo, read-out: Vss

[
  {
    "smiles_data": "CS(=O)(=O)c1ccc(-c2ccsc2-c2ccc(F)cc2)cc1",
    "Vd [L/kg]": 19
  },
  {
    "smiles_data": "c1ccc(-c2ccsc2-c2ccccc2)cc1",
    "Vd [L/kg]": 19.6
  },
  {
    "smiles_data": "Cc1cc(-c2ccc(S(C)(=O)=O)cc2)c(-c2ccc(F)cc2)s1",
    "Vd [L/kg]": 16.8
  },
  {
    "smiles_data": "CS(=O)(=O)c1ccc(-c2cc(Br)sc2-c2ccc(F)cc2)cc1",
    "Vd [L/kg]": 6.3
  }
]

====

Reported pIC50 is given for each of the following molecules.
- assayed_system: Prostaglandin G/H synthase 2 (Homo sapiens, UniProt P35354)
- Sequence (P35354 whole entry): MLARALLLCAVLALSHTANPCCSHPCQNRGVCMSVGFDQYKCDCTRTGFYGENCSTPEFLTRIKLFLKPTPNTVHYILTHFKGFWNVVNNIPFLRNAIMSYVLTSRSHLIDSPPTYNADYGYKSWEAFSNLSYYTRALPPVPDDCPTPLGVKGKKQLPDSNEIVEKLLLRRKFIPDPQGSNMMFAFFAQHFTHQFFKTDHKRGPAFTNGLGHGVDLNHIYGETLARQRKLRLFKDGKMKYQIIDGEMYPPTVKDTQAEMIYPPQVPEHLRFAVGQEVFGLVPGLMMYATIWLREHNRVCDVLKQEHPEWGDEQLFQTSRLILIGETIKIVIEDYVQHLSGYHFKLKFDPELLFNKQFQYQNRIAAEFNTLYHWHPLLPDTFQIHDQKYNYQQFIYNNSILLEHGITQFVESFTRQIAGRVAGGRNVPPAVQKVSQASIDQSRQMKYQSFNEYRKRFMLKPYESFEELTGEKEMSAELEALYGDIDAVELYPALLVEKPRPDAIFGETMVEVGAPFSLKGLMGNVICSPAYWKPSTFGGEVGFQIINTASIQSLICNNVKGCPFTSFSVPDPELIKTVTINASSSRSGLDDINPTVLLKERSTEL
pIC50: −log10 of the molar value.
test_readout: pIC50

[
  {
    "smiles_data": "CS(=O)(=O)c1ccc(-c2ccsc2-c2ccccc2)cc1",
    "measured_value": 5.40
  },
  {
    "smiles_data": "CSc1ccc(-c2cscc2-c2ccc(S(C)(=O)=O)cc2)cc1",
    "measured_value": 5.22
  },
  {
    "smiles_data": "Cc1ccc(-c2cscc2-c2ccc(S(C)(=O)=O)cc2)cc1",
    "measured_value": 5.40
  },
  {
    "smiles_data": "CS(=O)(=O)c1ccc(-c2cc(Sc3ccccc3)sc2-c2ccc(F)cc2)cc1",
    "measured_value": 4.18
  }
]
